Quick reference for AC50 among some compounds
# System: rabbit Platelet Activating Factor Receptor (PAF), gene 100354046
# assayExplanation: NVS_GPCR_rabPAF: NovaScreen (NVS) G Protein-Coupled Receptor Assay for rabbit Platelet Activating Factor Receptor (PAF) (AID 2283287)
Inconclusive results are not listed. Activity calls are given as the source filed them. How the source made its calls: active means hit-call score of the fitted dose curve at least 0.9, where 1 is the maximum; inconclusive means response in the unintended direction; inactive means score below 0.9.

Use the examples below as a reference point.
In [3]: df
Out[3]:
                                   compound                            targetorsystem  readouttype     valueobserved
0                        [Cl-].[Cl-].[Hg+2]  rabbit Platelet Activating Factor Receptor (PAF), gene 100354046         AC50  36.7 µM (active)
1  CCOC(=O)[C@]1(c2ccccc2)Oc2ccccc2[C@@H]1N  rabbit Platelet Activating Factor Receptor (PAF), gene 100354046         AC50   7.6 µM (active)

Note: attention shifts to another entry.
Please report AC50 for the following compound: CC(C)(C)C(O)(CCc1ccc(Cl)cc1)Cn1cncn1 (centres undefined)
16.7 µM (active)

---

# assayExplanation: CCTE_Shafer_MEA_acute_burst_duration_mean: CCTE's Neural Acute Assay for Mean Burst Duration, Shafer Lab (AID 2284014);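 further: hits are decreases in mean burst duration relative to DMSO controls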
Activity calls are given as the source filed them. How the source made its calls: active means hit-call score of the fitted dose curve at least 0.9, where 1 is the maximum; inactive means score below 0.9.
readoutType: outcome

In [3]: df
Out[3]:
            querysmiles  readouttype  valueobserved
0  c1ccc(NNc2ccccc2)cc1      outcome       inactive
1            CCN(CC)CCO      outcome       inactive
2             ClCCOCCCl      outcome       inactive

---

# Read-out: catalase (CAT), CAT (gene 847)
# assayExplanation: LTEA_HepaRG_CAT: Life Technologies and Expression Analysis (LTEA) Assay for catalase (CAT) using HepaRG (AID 2283452)
# measurementParameters: mRNA level, 48 h; actives raise or lower the signal
Activity calls are given as the source filed them. How the source made its calls: active means hit-call score of the fitted dose curve at least 0.9, where 1 is the maximum; inactive means score below 0.9.
Outcomes you can answer with include only these: YES for active, NO for inactive

In [3]: df
Out[3]:
                                   compound  classification
0                             CN(C)c1ccccc1              NO
1                            Nc1ccc(Cl)cc1N             YES
2  CN(C)[C@@H]1C(=O)C(C(N)=O)=C(O)[C@@]2(O)C(=O)C3=C(O)c4c(O)cccc4[C@@](C)(O)[C@H]3C[C@@H]12              NO

Status in this test for Cc1ccc(N)cc1 ?
NO

Could you kindly confirm the outcome this assay logged for CCCCOC(=O)c1ccccc1C(=O)OCc1ccccc1 ?
NO

Hey, what did the test say about Cc1cc(N=Nc2ccccc2C)ccc1N ?
YES

I would be grateful if you could indicate the recorded call for CN(C)c1ccc(C(=O)c2ccc(N(C)C)cc2)cc1 .
NO

I would be grateful if you could indicate the recorded call for O=[N+]([O-])c1ccc(Oc2ccc(Cl)cc2Cl)cc1 .
NO

Tell me the assay call for Cc1ccc([N+](=O)[O-])cc1 please.
NO

How was O=P(OCCCl)(OCCCl)OCCCl classified in this test?
NO

Query: recorded result category for OCCOCCO in this test
NO

---

# targetOrSystem: Agonist Androgen Response Element (ARE), AR (gene 367)
# assayExplanation: OT_AR_ARELUC_AG_1440: Odyssey Thera (OT) 24-hour CHO-K1 Luciferase Assay for Agonist Androgen Response Element (ARE) (AID 2283379)
Records with an inconclusive call do not appear. Active and inactive are the calls of the source. Rule for the calls: active = hit-call score of the fitted dose curve at least 0.9, where 1 is the maximum; inconclusive = response in the unintended direction; inactive = score below 0.9.
Pick one: active, inactive

Recorded results for 5 compounds are shown here.
>>> df
                                   compound  classification
0                                 O=C1CCCO1        inactive
1            CC(C)N(Cc1ccccc1)C(=O)C(C)(C)C        inactive
2               CNC(=O)Oc1cccc2c1OC(C)(C)C2        inactive
3  CC(C)(O)c1cnn2c(-c3ccc(F)c(-c4c(F)cccc4C#N)c3)cnc2n1        inactive
4          CC(C)(OOC(C)(C)c1ccccc1)c1ccccc1        inactive

What did this assay record as the result for C[N+](C)(C)CC1CO1 (stereo not drawn) ?
active

Write down the call the test reported for this compound. Item: COC(=O)Nc1nc2ccccc2[nH]1
inactive

Any idea what this test logged for Nc1ccc(Cl)cc1N ?
inactive

---

# Read-out: growth arrest and DNA damage 45 (GADD45G), GADD45G (gene 10912)
# assayExplanation: LTEA_HepaRG_GADD45G: Life Technologies and Expression Analysis (LTEA) Assay for growth arrest and DNA damage 45 (GADD45G) using HepaRG (AID 2283499)
# measurementParameters: mRNA level, 48 h; actives raise or lower the signal
Calls of active or inactive are those of the source. The calls were made as follows: active = hit-call score of the fitted dose curve at least 0.9, where 1 is the maximum; inactive = score below 0.9.
Parameter call: string, one of YES (active), NO (inactive)

Answered cases to consult:
>>> print(df.to_string())
                                querysmiles  classification
0  CO[C@@H]1[C@H](OC(=O)NC(=O)CCl)CC[C@]2(CO2)[C@H]1[C@@]1(C)O[C@@H]1CC=C(C)C              NO
1                                    OCCCBr              NO
2  Cn1cc(-c2ccccc2)c(=O)c(-c2cccc(C(F)(F)F)c2)c1             YES
3                         CCCCCCCCn1sccc1=O              NO
4  ClC1=C(Cl)[C@]2(Cl)[C@H]3[C@H]([C@@H]4C=C[C@H]3C4)[C@@]1(Cl)C2(Cl)Cl              NO
5          CC(C)COC(=O)c1ccccc1C(=O)OCC(C)C              NO

# input for lookup
Check the results log: what was the call for Cc1ccc(N=C=O)cc1N=C=O ?
YES

---

# assayExplanation: APR_HepG2_p53Act_72hr: Apredica 72-hour HepG2 Assay for p53 Activation (AID 2282923);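 further: average cellular p53 protein immunofluorescence intensity in HepG2 cells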
# measurementParameters: high-content imaging, actives raise or lower the signal
# Experimental: APR_HepG2_72hr is a cell-based, multiplexed-readout assay that uses HepG2, a human liver cell line, with measurements taken at 72 hours after chemical dosing in a 384-well plate.APR_HepG2_p53Act_72hr is one of 10 assay component(s) measured or calculated from the APR_HepG2_72hr assay. […] This assay endpoint, APR_HepG2_p53Act_72hr, was analyzed with bidirectional fitting relative to DMSO as the negative control and baseline of activity. […]
Activity calls are given as the source filed them. Rule for the calls: active = hit-call score of the fitted dose curve at least 0.9, where 1 is the maximum; inactive = score below 0.9.
Hello, when you answer, please use one of the following outcomes: true (1) for active, false (0) for inactive

In [3]: df
Out[3]:
                                   compound  classification
0                             Cc1cccc(N)c1N       false (0)
1    Clc1ccc(C(c2ccc(Cl)cc2)C(Cl)(Cl)Cl)cc1       false (0)
2  O=C(N[C@H](c1ccccc1)[C@@H]1CN2CCC1CC2)c1c(Cl)ccc(C(F)(F)F)c1Cl       false (0)
3                        N#CC(Br)(Br)C(N)=O       false (0)
4          COP(=S)(OC)SCN1C(=O)c2ccccc2C1=O       false (0)
5                 Oc1ccc2ccc3cccc4ccc1c2c34       false (0)

Hi, sorry to bother you, what did the test record for CCCCCOC(=O)c1ccccc1C(=O)OCCCCC ?
false (0)

Outcome? Clc1ccc(C(c2ccc(Cl)cc2)C(Cl)Cl)cc1
true (1)

# fetch the recorded call for O=C1CCCO1 here
false (0)

Kindly provide the recorded test outcome for the following compound: OCCCBr
false (0)

Which outcome was assigned to CCCCC(CC)COC(=O)c1ccc(C(=O)OCC(CC)CCCC)c(C(=O)OCC(CC)CCCC)c1 (centres undefined) in this test?
false (0)

What did the test return for CCCCCCCCOC(=O)c1ccc(C(=O)OCCCCCCCC)c(C(=O)OCCCCCCCC)c1 ?
false (0)

Lab log entry: Nc1cc(Cl)cc(C(=O)O)c1Cl — outcome as called in the assay?
false (0)

I would be grateful if you could indicate the recorded call for O=P(OCCCl)(OCCCl)OCCCl .
false (0)

Hi team, can someone confirm the assay call for Cc1cc(N=Nc2ccccc2C)ccc1N ?
true (1)

---

# Read-out: Interleukin-8 (IL8), CXCL8 (gene 3576)
# assayExplanation: BSK_LPS_IL8: BioMAP Diversity Plus: LPS Assay for Interleukin-8 (IL8) Biomarker Activity (AID 2283078)
# measurementParameters: primary human HUVEC with PBMC; actives raise or lower the signal
Calls of active or inactive are those of the source. Rule for the calls: active = hit-call score of the fitted dose curve at least 0.9, where 1 is the maximum; inactive = score below 0.9.
Tick one outcome: yes (1) for active, no (0) for inactive

>>> print(df.to_string())
                              compound  classification
0     CC(C)COC(=O)c1ccccc1C(=O)OCC(C)C          no (0)
1  CC(O)CCO (configuration not stated)          no (0)

Returns: the outcome recorded for CCOc1cccc(C2(N3CCN(c4ccccc4)CC3)CCC(C)CC2)c1 (configuration not stated) in this assay.
no (0)

Lab log entry: OCCOCCO — outcome as called in the assay?
no (0)

Recorded test outcome, item [O-][Cl+]O
no (0)

Just curious, what result did c1ccc(N=Nc2ccccc2)cc1 get here?
no (0)

Short answer needed: outcome of this test for O=[N+]([O-])C(Br)(CO)CO ?
yes (1)

Dear colleague, could you share the recorded outcome for Cc1cc(N=Nc2ccccc2C)ccc1N when you have a moment?
no (0)

Given Cc1ccc(N)c(N)c1 , state the outcome it received in this test.
no (0)

Field: outcome | Entry: Cc1ccc([N+](=O)[O-])cc1
no (0)

Recorded test call requested for ClC1=C(Cl)[C@]2(Cl)[C@H]3[C@H]([C@@H]4C=C[C@H]3C4)[C@@]1(Cl)C2(Cl)Cl
yes (1)

Would you mind telling me which call this test gave COC(=O)Nc1nc2ccccc2[nH]1 ?
no (0)

How was CCCCOC(=O)c1ccccc1C(=O)OCc1ccccc1 classified in this test?
no (0)

Record request — test call for Cc1ccc(N=C=O)cc1N=C=O
no (0)

Tell me the recorded outcome of this test for CN(C)[C@@H]1C(=O)C(C(N)=O)=C(O)[C@@]2(O)C(=O)C3=C(O)c4c(O)cccc4[C@@](C)(O)[C@H]3C[C@@H]12 .
no (0)

How was Clc1ccc(Cl)c(Cl)c1 classified in this test?
no (0)

State the result this test recorded for O=C(Oc1ccc(Br)cc1)N1CCN2CCC1CC2 .
no (0)

Origin of values: PubChem BioAssay (EPA / NIEHS)
